test: Oral bioavailability in rat at 10 mg/kg, po; type: ADME, organism-based; settings: in vivo
quantityMeasured: bioavailability (%)

| structure | readoutUnit | reading |
| --- | --- | --- |
| CC(C)(C)NCc1ccc2c(c1)CCC[C@H]2NC(=O)C[C@@H]1CCCCN1S(=O)(=O)c1cccc(C(F)(F)F)c1 | % | 19 |

* * *

assay: Clearance in rat at 1 mg/kg, iv; type: ADME, organism-based; set-up: dose 1 mg/kg, route intravenous; details: in vivo
quantityMeasured: clearance (mL/min/kg)

| structure | reading |
| --- | --- |
| CC(C)(C)NCc1ccc2c(c1)CCC[C@H]2NC(=O)C[C@@H]1CCCCN1S(=O)(=O)c1cccc(C(F)(F)F)c1 | 36.7 |
